Data provenance: ChEMBL document CHEMBL3351998

- target.entity: Protein-glutamine gamma-glutamyltransferase K (Homo sapiens) (UniProt P22735)
- Sequence (whole entry): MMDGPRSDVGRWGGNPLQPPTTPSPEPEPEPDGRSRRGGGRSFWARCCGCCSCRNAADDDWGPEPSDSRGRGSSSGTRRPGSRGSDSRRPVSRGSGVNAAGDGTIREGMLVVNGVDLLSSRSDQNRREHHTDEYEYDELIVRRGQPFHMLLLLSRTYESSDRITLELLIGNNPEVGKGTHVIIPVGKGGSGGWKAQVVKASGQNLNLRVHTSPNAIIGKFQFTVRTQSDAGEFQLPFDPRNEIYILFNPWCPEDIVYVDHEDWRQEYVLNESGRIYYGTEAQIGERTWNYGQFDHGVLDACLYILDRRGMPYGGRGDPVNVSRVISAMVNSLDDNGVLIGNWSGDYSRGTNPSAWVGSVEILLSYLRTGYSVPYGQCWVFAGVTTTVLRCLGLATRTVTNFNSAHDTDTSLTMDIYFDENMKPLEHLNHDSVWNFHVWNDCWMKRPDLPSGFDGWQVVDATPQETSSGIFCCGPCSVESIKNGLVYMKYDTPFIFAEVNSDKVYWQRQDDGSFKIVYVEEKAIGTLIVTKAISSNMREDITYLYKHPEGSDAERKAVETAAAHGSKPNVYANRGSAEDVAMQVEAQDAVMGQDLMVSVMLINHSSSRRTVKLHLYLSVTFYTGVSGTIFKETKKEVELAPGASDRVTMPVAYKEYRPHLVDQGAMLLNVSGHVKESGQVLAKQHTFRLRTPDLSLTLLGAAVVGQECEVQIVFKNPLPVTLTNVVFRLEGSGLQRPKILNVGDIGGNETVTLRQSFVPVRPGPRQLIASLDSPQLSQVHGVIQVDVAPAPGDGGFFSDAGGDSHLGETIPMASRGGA
- method: Inhibition of human transglutaminase 1 using ((benzyloxy)carbonyl)-L-glutaminyl-L-serine peptide substrate assessed as Kinh/Ki ratio by GDH coupled assay
value.kind: Ratio

1) O=C(NC[C@@H]1CC(Br)=NO1)[C@@H]1CCCN1C(=O)OCc1cnc2ccccc2c1: 13.2

a: C#Cc1ccc(COC(=O)N2CCC[C@H]2C(=O)NC[C@@H]2CC(Br)=NO2)cc1
b: O=C(NC[C@@H]1CC(Br)=NO1)[C@@H]1C[C@H](c2ccccc2)CN1C(=O)OCc1cnc2ccccc2c1
c: C#CCOC(=O)N1CCC[C@H]1C(=O)NC[C@@H]1CC(Br)=NO1
d: O=C(NC[C@@H]1CC(Br)=NO1)[C@@H]1CCCN1C(=O)OCc1ccnc2ccccc12
Sort the 4 compounds by Ratio; largest first, smallest last. Could you list the labels in the order requested? b, d, a, c
(b: 17.2, d: 12, a: 7.6, c: 0.7)

* * *

- target.entity: Coagulation factor XIII A chain (Homo sapiens) (UniProt P00488)
- Sequence (P00488 whole entry): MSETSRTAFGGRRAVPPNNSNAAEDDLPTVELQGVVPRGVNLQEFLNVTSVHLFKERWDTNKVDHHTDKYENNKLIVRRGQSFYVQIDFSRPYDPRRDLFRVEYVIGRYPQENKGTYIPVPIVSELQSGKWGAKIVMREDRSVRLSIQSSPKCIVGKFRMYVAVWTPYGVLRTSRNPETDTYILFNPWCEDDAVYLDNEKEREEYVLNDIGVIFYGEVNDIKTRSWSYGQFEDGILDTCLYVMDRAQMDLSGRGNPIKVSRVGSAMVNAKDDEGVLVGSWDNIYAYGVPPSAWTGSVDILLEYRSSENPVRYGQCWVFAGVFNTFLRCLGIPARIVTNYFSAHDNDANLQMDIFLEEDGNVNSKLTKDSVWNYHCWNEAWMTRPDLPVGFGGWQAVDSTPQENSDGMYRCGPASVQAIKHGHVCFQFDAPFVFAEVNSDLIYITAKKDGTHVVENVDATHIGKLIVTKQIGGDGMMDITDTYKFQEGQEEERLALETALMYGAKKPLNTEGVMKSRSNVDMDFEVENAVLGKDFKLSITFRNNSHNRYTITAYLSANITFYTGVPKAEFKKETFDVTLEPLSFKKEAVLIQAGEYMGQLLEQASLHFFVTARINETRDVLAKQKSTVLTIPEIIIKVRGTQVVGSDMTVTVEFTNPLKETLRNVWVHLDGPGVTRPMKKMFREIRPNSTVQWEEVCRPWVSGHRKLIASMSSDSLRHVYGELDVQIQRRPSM
- method: Inhibition of human factor 13a using QEQVSPLSLLK peptide substrate assessed as Kinh/Ki ratio by GDH coupled assay
value.kind: Ratio

1. O=C(NC[C@@H]1CC(Br)=NO1)[C@@H]1C[C@@H](O)CN1C(=O)OCc1cnc2ccccc2c1: 11.1

1: O=C(NC[C@@H]1CC(Br)=NO1)[C@@H]1C[C@@H](c2ccccc2)CN1C(=O)OCc1cnc2ccccc2c1
2: O=C(N[C@@H]1C[C@@H](C(=O)NC[C@@H]2CC(Br)=NO2)N(C(=O)OCc2cnc3ccccc3c2)C1)c1cccnc1
3: O=C(NC[C@@H]1CC(Br)=NO1)[C@@H]1C[C@H](F)CN1C(=O)OCc1cnc2ccccc2c1
Order the records so the highest Ratio appears first and the lowest last. Rank the items, then write their labels in that order. 1, 2, 3

* * *

- method: Plasma concentration in CD-1 mouse at 50 mg/kg, po after 20 mins
- Type: ADME, organism-based
- Design: dose 50 mg/kg, route oral
value.kind: concentration at 20 min (ng/mL)

1: O=C(NC[C@@H]1CC(Br)=NO1)[C@@H]1C[C@H](F)CN1C(=O)OCc1cnc2ccccc2c1
2: O=C(NC[C@@H]1CC(Br)=NO1)[C@@H]1CCCN1C(=O)OCc1cnc2ccccc2c1
Lower value of concentration at 20 min belongs to which: 1 or 2 ? Write the label of whichever entry you select. 2

* * *

- target.entity: Protein-glutamine gamma-glutamyltransferase (Homo sapiens)
- Sequence (whole entry): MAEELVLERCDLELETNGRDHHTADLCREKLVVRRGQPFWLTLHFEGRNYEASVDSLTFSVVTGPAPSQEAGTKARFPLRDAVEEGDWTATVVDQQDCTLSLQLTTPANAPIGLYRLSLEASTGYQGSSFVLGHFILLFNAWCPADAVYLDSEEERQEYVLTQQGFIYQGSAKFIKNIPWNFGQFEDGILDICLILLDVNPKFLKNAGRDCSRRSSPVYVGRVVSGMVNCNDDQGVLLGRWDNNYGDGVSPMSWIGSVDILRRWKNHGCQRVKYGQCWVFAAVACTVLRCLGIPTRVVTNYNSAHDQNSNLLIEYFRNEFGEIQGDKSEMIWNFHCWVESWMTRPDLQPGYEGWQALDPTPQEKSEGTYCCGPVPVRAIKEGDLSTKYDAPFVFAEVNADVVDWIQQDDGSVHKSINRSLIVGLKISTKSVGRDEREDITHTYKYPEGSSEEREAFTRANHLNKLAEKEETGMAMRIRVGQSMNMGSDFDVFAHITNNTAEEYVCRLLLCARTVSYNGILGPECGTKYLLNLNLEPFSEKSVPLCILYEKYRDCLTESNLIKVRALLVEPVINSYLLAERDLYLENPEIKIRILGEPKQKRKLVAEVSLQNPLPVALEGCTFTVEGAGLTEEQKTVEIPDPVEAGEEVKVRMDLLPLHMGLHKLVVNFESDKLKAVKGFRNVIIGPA
- method: Inhibition of human transglutaminase 2 using ((benzyloxy)carbony l)-L-glutaminylglycine peptide substrate assessed as Kinh/Ki ratio by GDH coupled assay
value.kind: Ratio

Example compounds with recorded Ratio:
1) O=C(NC[C@@H]1CC(Br)=NO1)[C@@H]1C[C@@H](OCc2ccccc2)CN1C(=O)OCc1cnc2ccccc2c1: 13.8
2) O=C(NC[C@@H]1CC(Br)=NO1)[C@@H]1C[C@@H](F)CN1C(=O)OCc1cnc2ccccc2c1: 7.3
3) O=C(NC[C@@H]1CC(Br)=NO1)[C@@H]1C[C@@H](c2cccc(Cl)c2)CN1C(=O)OCc1cnc2ccccc2c1: 25.3

P: O=C(NC[C@@H]1CC(Br)=NO1)[C@@H]1C[C@@H](c2ccc(O)cc2)CN1C(=O)OCc1cnc2ccccc2c1
Q: CC(C)(C)OC(=O)N1CCC[C@H]1C(=O)NC[C@@H]1CC(Br)=NO1
Of P and Q , which one carries the higher reported Ratio? // output: label of the selected item P
(P: 91.1, Q: 2.5)

* * *

- target.entity: Protein-glutamine gamma-glutamyltransferase K (Homo sapiens) (UniProt P22735)
- method: Inhibition of human transglutaminase 1 using ((benzyloxy)carbonyl)-L-glutaminyl-L-serine peptide substrate assessed as Kinh/Ki ratio by GDH coupled assay
value.kind: Ratio

1. O=C(N[C@@H]1C[C@@H](C(=O)NC[C@@H]2CC(Br)=NO2)N(C(=O)OCc2cnc3ccccc3c2)C1)c1cccnc1: 20

a: C[C@@]1(C(=O)NC[C@@H]2CC(Br)=NO2)CCCN1C(=O)OCc1cnc2ccccc2c1
b: O=C(NC[C@@H]1CC(Br)=NO1)[C@@H]1C=C(c2ccccc2)CN1C(=O)OCc1cnc2ccccc2c1
c: O=C(NC[C@@H]1CC(Br)=NO1)[C@@H]1C[C@@H](O)CN1C(=O)OCc1cnc2ccccc2c1
Put these in order: smallest Ratio first, largest last. Answer by listing the labels in the requested order. a, c, b
(a: 2.4, c: 4.8, b: 18.9)

* * *

- target.entity: Protein-glutamine gamma-glutamyltransferase (Homo sapiens)
- method: Inhibition of human transglutaminase 2 using ((benzyloxy)carbony l)-L-glutaminylglycine peptide substrate assessed as Kinh/Ki ratio by GDH coupled assay
Active and inactive are the calls of the source. The calls are words filed in the database; no cut-off is given here.
value.kind: Ratio

// solved cases for Ratio follow
1) O=C(NC[C@@H]1CC(Br)=NO1)[C@@H]1CCCN1C(=O)OCc1cccnc1: 4.6
2) C[C@H](OC(=O)N1CCC[C@@H]1C(=O)NC[C@@H]1CC(Br)=NO1)c1cnc2ccccc2c1: 3.7
3) O=C(N[C@@H]1C[C@@H](C(=O)NC[C@@H]2CC(Br)=NO2)N(C(=O)OCc2cnc3ccccc3c2)C1)c1cccnc1: 108
4) COc1cccc(COC(=O)N2CCC[C@H]2C(=O)NC[C@@H]2CC(Br)=NO2)c1OC: inactive
5) Cn1c(COC(=O)N2CCC[C@H]2C(=O)NC[C@@H]2CC(Br)=NO2)nc2ccccc21: inactive
6) CO[C@@H]1C[C@@H](C(=O)NC[C@@H]2CC(Br)=NO2)N(C(=O)OCc2cnc3ccccc3c2)C1: 10.4
7) O=C(N[C@@H]1C[C@@H](C(=O)NC[C@@H]2CC(Br)=NO2)N(C(=O)OCc2cnc3ccccc3c2)C1)c1ccc(O)cc1: 56.4

Attention now shifts to the item below.
Using the record for O=C(NC[C@@H]1CC(Br)=NO1)[C@@H]1CCCN1C(=O)OCc1ccccn1 , report its Ratio. 1.2
